Provide the reported percent inhibition of Factor 7 mRNA, 25.0 nM of each item.
- Test system: human Factor 7 mRNA
- test: Dose-dependent antisense inhibition of human Factor 7 in HepB3 cells, transfection with lipofectin
- Format: cell-based
- test parameters: Example 5; HepB3, lipofectin, 25.0 nM, ~16 h
In the oligonucleotide strings, read from the 5' end, every base follows the letter of its sugar. An asterisk marks phosphorothioate; unmarked linkages are phosphodiester. Other units and linkages are bracketed, terminal groups are in braces. A string of capitals states the bases alone. e = 2'-O-(2-methoxyethyl) (MOE); [5mC] = 5-methylcytosine; d = 2'-deoxy (DNA)
Give bare numbers, in %.

Reference set, count: 6
416438 (antisense e[5mC]*eA*eG*eG*eA*dG*d[5mC]*d[5mC]*d[5mC]*d[5mC]*d[5mC]*dA*dT*dT*d[5mC]*eT*eG*eG*e[5mC]*eA) [compound 416438]: 56
407643 (antisense e[5mC]*eA*e[5mC]*eA*e[5mC]*dA*dT*dG*dG*dA*dG*dT*d[5mC]*dA*dG*e[5mC]*eA*eT*e[5mC]*eG) [compound 407643]: 70
416507 (antisense eG*eG*eT*eT*eA*d[5mC]*dT*dG*dA*dG*d[5mC]*dG*d[5mC]*dG*dG*eA*eA*eG*eA*eA) [compound 416507]: 70
416449 (antisense eT*eA*eG*eG*eT*dA*dT*dT*dT*dT*dT*d[5mC]*d[5mC]*dA*d[5mC]*eA*eT*eG*eG*eA) [compound 416449]: 45
407939 (antisense eT*eG*e[5mC]*eA*eG*d[5mC]*d[5mC]*d[5mC]*dG*dG*d[5mC]*dA*d[5mC]*d[5mC]*d[5mC]*eA*eG*e[5mC]*eG*eA) [compound 407939]: 77
416472 (antisense e[5mC]*eA*eG*e[5mC]*e[5mC]*dT*dT*dG*dG*d[5mC]*dT*dT*dT*d[5mC]*dT*e[5mC]*eT*e[5mC]*e[5mC]*eA) [compound 416472]: 64

State the recorded percent inhibition of Factor 7 mRNA, 25.0 nM for every item in the following list.
1. 416455 (antisense e[5mC]*eG*e[5mC]*e[5mC]*eG*dG*d[5mC]*dT*d[5mC]*dT*dG*d[5mC]*dT*d[5mC]*dA*eT*e[5mC]*e[5mC]*e[5mC]*e[5mC]) [compound 416455]
2. 416446 (antisense eG*eG*eT*e[5mC]*eA*d[5mC]*dT*dG*d[5mC]*dA*dG*dT*dA*d[5mC]*dT*eG*e[5mC]*eT*e[5mC]*eA) [compound 416446]
3. 416549 (antisense eG*eA*e[5mC]*eA*eA*dT*dG*dG*dT*d[5mC]*dA*dG*dG*dG*d[5mC]*eT*eG*eG*eT*eT) [compound 416549]
4. 416508 (antisense e[5mC]*eG*eA*eG*eT*dT*d[5mC]*dT*dG*d[5mC]*dA*dG*dG*dA*dG*e[5mC]*eG*eG*e[5mC]*e[5mC]) [compound 416508]
5. 407900 (antisense e[5mC]*e[5mC]*e[5mC]*e[5mC]*eA*d[5mC]*dA*dA*dT*dT*d[5mC]*dG*dG*d[5mC]*d[5mC]*eT*eT*eG*eG*eG) [compound 407900]
6. 416477 (antisense e[5mC]*eA*eG*e[5mC]*e[5mC]*dT*dG*dA*dG*dG*d[5mC]*d[5mC]*dA*dG*d[5mC]*eA*eG*eA*eT*e[5mC]) [compound 416477]
7. 407935 (antisense eA*eT*eG*e[5mC]*eA*dT*dG*dG*dT*dG*dA*dT*dG*d[5mC]*dT*eT*e[5mC]*eT*eG*eA) [compound 407935]

a:
1. 64
2. 50
3. 63
4. 71
5. 61
6. 64
7. 70

---

- Test system: human Factor 7 mRNA
- test: Antisense inhibition of human Factor 7 mRNA in HepB3 cells, lipofectin, 50 nM, real-time RT-PCR
- Assay type: cell-based
- test parameters: Example 1; HepB3 cells, lipofectin, 50 nM, ~24 h, relative to untreated control cells
In the oligonucleotide strings, read from the 5' end, every base follows the letter of its sugar. An asterisk marks phosphorothioate; unmarked linkages are phosphodiester. Other units and linkages are bracketed, terminal groups are in braces. A string of capitals states the bases alone. e = 2'-O-(2-methoxyethyl) (MOE); [5mC] = 5-methylcytosine; d = 2'-deoxy (DNA)
observed property: % Inhibition (human Factor 7 mRNA) (%)
One number for each entry, in %.

Reference set, count: 2
407963 (antisense eA*eG*eA*eG*e[5mC]*dA*dG*dG*dG*dT*dG*d[5mC]*d[5mC]*dT*dT*eG*eG*eA*eA*eG) [compound 407963]: 33
407910 (antisense eA*eG*eT*e[5mC]*e[5mC]*dT*dT*dG*d[5mC]*dT*dG*d[5mC]*d[5mC]*dA*dT*e[5mC]*e[5mC]*eG*eA*eG) [compound 407910]: 86

Continue with the next substance.
q: What does the record list as % Inhibition (human Factor 7 mRNA) for 407601 (antisense e[5mC]*eA*eG*e[5mC]*e[5mC]*d[5mC]*dT*dG*dA*dA*dG*d[5mC]*d[5mC]*d[5mC]*dA*eA*eG*e[5mC]*eA*eG) [compound 407601] ?
a: 52

---

Provide the reported % Inhibition of human Factor 7 mRNA levels of each item.
- System: human Factor 7 mRNA
- test: Antisense inhibition of human Factor 7 mRNA in HepB3 cells, lipofectin, 50 nM, real-time RT-PCR
- Assay type: cell-based
- test parameters: HepB3 cells, lipofectin, 50 nM antisense oligonucleotide, approximately 24 hours, primer probe set RTS 2927, relative to untreated control
In the oligonucleotide strings, read from the 5' end, every base follows the letter of its sugar. An asterisk marks phosphorothioate; unmarked linkages are phosphodiester. Other units and linkages are bracketed, terminal groups are in braces. A string of capitals states the bases alone. e = 2'-O-(2-methoxyethyl) (MOE); [5mC] = 5-methylcytosine; d = 2'-deoxy (DNA)
One number for each entry, in %.

Reference set, count: 3
416551 (antisense e[5mC]*eA*eG*eA*eA*dA*d[5mC]*dA*d[5mC]*d[5mC]*d[5mC]*dA*dT*d[5mC]*d[5mC]*eT*e[5mC]*eT*eG*eA) [compound 416551]: 19
416540 (antisense eG*eG*eA*e[5mC]*eT*dG*dG*dT*dG*dT*d[5mC]*dA*dT*d[5mC]*dT*eG*eG*eG*eA*e[5mC]) [compound 416540]: 38
416542 (antisense e[5mC]*eA*eG*eG*eG*dT*dG*d[5mC]*d[5mC]*d[5mC]*dA*dT*d[5mC]*d[5mC]*dT*eA*eG*eT*e[5mC]*eA) [compound 416542]: 56

State the recorded % Inhibition of human Factor 7 mRNA levels for every item in the following list.
1. 416521 (antisense e[5mC]*eA*e[5mC]*e[5mC]*e[5mC]*d[5mC]*dA*d[5mC]*d[5mC]*dA*dG*dG*dT*dT*dG*eT*eG*e[5mC]*eA*e[5mC]) [compound 416521]
2. 416457 (antisense eG*eG*eA*eT*eG*dA*dT*dG*dA*d[5mC]*d[5mC]*dT*dG*d[5mC]*dG*e[5mC]*e[5mC]*eA*e[5mC]*e[5mC]) [compound 416457]

a:
[36, 48]

State the recorded % Inhibition of human Factor 7 mRNA levels for every item in the following list.
1. 416445 (antisense eT*eA*e[5mC]*eT*eG*d[5mC]*dT*d[5mC]*dA*d[5mC]*dA*dG*d[5mC]*d[5mC]*dG*e[5mC]*e[5mC]*eG*eT*eT) [compound 416445]
2. 416459 (antisense eT*eG*eG*eT*e[5mC]*dA*dG*dT*dG*dA*dG*dG*dA*d[5mC]*d[5mC]*eA*e[5mC]*eG*eG*eG) [compound 416459]
3. 416546 (antisense e[5mC]*e[5mC]*eA*eG*eG*d[5mC]*dT*dG*dG*dT*dT*dT*dG*dG*dA*eG*eA*eA*eA*e[5mC]) [compound 416546]
4. 416554 (antisense eA*eA*eA*eG*eA*dT*d[5mC]*d[5mC]*d[5mC]*dA*d[5mC]*d[5mC]*dT*d[5mC]*dA*eA*eA*eG*eA*eG) [compound 416554]
5. 416538 (antisense e[5mC]*eG*eT*eG*eG*dA*d[5mC]*dT*dG*dA*dT*d[5mC]*d[5mC]*dA*dA*eA*eG*eG*eA*e[5mC]) [compound 416538]
6. 416465 (antisense e[5mC]*eA*e[5mC]*eT*eG*dT*d[5mC]*d[5mC]*d[5mC]*d[5mC]*d[5mC]*dT*dT*dG*d[5mC]*eA*eG*eG*eA*eG) [compound 416465]

a:
57
23
21
7
46
51

State the recorded % Inhibition of human Factor 7 mRNA levels for every item in the following list.
1. 416561 (antisense eG*eG*eT*eG*eT*dG*dT*dT*d[5mC]*d[5mC]*d[5mC]*dA*dT*dA*dA*eA*eA*e[5mC]*eT*eT) [compound 416561]
2. 416430 (antisense eG*e[5mC]*eA*eG*e[5mC]*dT*d[5mC]*d[5mC]*dT*d[5mC]*d[5mC]*dA*dG*dG*dA*eA*e[5mC]*eG*e[5mC]*eG) [compound 416430]
3. 416476 (antisense eG*e[5mC]*eA*eG*eG*dT*dG*dG*dG*d[5mC]*dT*dT*dG*dG*d[5mC]*eT*eG*eA*eA*eG) [compound 416476]
4. 416490 (antisense eA*e[5mC]*eT*e[5mC]*eA*dG*d[5mC]*dA*dA*dG*dA*dG*dT*dG*d[5mC]*eA*eG*e[5mC]*eT*eT) [compound 416490]
5. 416464 (antisense eA*eA*e[5mC]*eA*eT*dG*dT*dA*d[5mC]*dT*d[5mC]*d[5mC]*dG*dT*dG*eA*eT*eA*eT*eT) [compound 416464]
6. 416425 (antisense eA*eA*eG*e[5mC]*eA*dG*dA*dA*dG*dG*d[5mC]*dA*dG*dA*dG*eG*eA*eG*e[5mC]*e[5mC]) [compound 416425]
7. 416519 (antisense eA*eA*eA*eT*eA*dT*dG*dG*dG*dA*d[5mC]*d[5mC]*d[5mC]*dA*dA*eA*eG*eT*eG*eG) [compound 416519]
8. 416559 (antisense eG*e[5mC]*e[5mC]*eA*eT*dT*dT*d[5mC]*dT*dA*dG*dG*dT*d[5mC]*dT*eG*e[5mC]*eA*eG*eG) [compound 416559]

a:
[16, 52, 58, 33, 53, 13, 9, 25]

State the recorded % Inhibition of human Factor 7 mRNA levels for every item in the following list.
1. 416504 (antisense eT*e[5mC]*eA*eG*eA*dA*dA*dA*dG*d[5mC]*dT*d[5mC]*dT*d[5mC]*dA*eA*eG*eA*eA*e[5mC]) [compound 416504]
2. 416511 (antisense eT*eT*eG*e[5mC]*eT*dG*dG*dG*dA*dG*dG*dA*d[5mC]*dG*dA*eG*eG*e[5mC]*e[5mC]*eT) [compound 416511]

a:
1: 0; 2: 35
